# System: hRBCs
# run.conditions: human erythrocytes, 1 h at 37° C.
Ends that are not written are not given here.
endpoint.name: Toxicity Haemolysis (hRBCs)

RFGRFLRKIRRFRLKVTITIQGSARF [CMAP26 (P14→L)] :: − (<25% dead cells)
RFGRFLRKIRRLRPK [CMAP(1-15) (F12→L), RFGRFLRKIRRLRPK] :: − (<25% dead cells)
RFGRFLRKIRRFRGKVTITIQGSARF [CMAP26 (P14→G)] :: − (<25% dead cells)
